The reported numbers originate from patent US20100269215A1.

system: TflA protein; test: Degradation of toxoflavin and its derivatives by TflA protein (TLC enzyme analysis); format: biochemical, Paenibacillus polymyxa JH2; settings: within given time; see FIG. 8
MEASURE: degradation by TflA protein

Use these answered entries as a reference point.
# MOLECULE, degradation by TflA protein
records = [
    ("Cn1c(=O)[nH]c2nncnc2c1=O [reumycin]", "partially degraded"),
    ("Cn1nc(-c2ccccc2)nc2c(=O)n(C)c(=O)nc1-2 [3-phenyltoxoflavin]", "not degraded at all"),
    ("Cn1c(=O)c2ncnnc2n(C)c1=O [fervenulin]", "partially degraded"),
    ("Cc1n[nH]c2nc(=O)n(C)c(=O)c-2n1 [3-methylreumycin]", "completely degraded"),
    ("O=c1[nH]c(=O)c2cc3ccccc3nc2[nH]1 [5-deazaflavin]", "not degraded at all"),
    ("Cc1nc2c(=O)n(C)c(=O)nc-2n(C)n1 [3-methyltoxoflavin]", "completely degraded"),
]

[Q] Give degradation by TflA protein; test system TflA protein; molecule Cn1c(=O)nc2[nH]nc(-c3ccccc3)nc-2c1=O [3-phenylreumycin]
[A] not degraded at all

[Q] Look up TflA protein data: degradation by TflA protein of Cn1ncnc2c(=O)n(C)c(=O)nc1-2 [toxoflavin] , then report it.
[A] completely degraded

[Q] Give TflA protein degradation by TflA protein for the following molecule: CC1=NN(C)c2[nH]c(=O)n(C)c(=O)c2N1 [3-methyl 4,8-dihydrotoxoflavin]
[A] partially degraded
